ASSAY TARGET: UniProt P24941
PROCEDURE SUMMARY: Enzyme Assay
CONDITION SUMMARY: concentration not given here
Label scheme for inhibition: lower than 50% is false, 50% and above is true.

COMPOUND: CC(CC(=O)N1CCC(Nc2nc(N)c(C(=O)c3c(F)cccc3F)s2)CC1)CC(C)(C)C (configuration not stated)
ASSAY TARGET: UniProt P24941
LABEL: false
//
COMPOUND: COc1ccc(CC(=O)N2CCC(Nc3nc(N)c(C(=O)c4c(F)cccc4F)s3)CC2)cc1OC
ASSAY TARGET: UniProt P24941
LABEL: true
//
COMPOUND: COC(=O)C(=O)N1CCC(Nc2nc(N)c(C(=O)c3c(F)cccc3F)s2)CC1
ASSAY TARGET: UniProt P24941
LABEL: false
//
COMPOUND: CCCCCCC(=O)N1CCC(Nc2nc(N)c(C(=O)c3c(F)cccc3F)s2)CC1
ASSAY TARGET: UniProt P24941
LABEL: true
//
COMPOUND: Nc1nc(NC2CCN(C(=O)/C=C/c3ccc(F)cc3F)CC2)sc1C(=O)c1c(F)cccc1F
ASSAY TARGET: UniProt P24941
LABEL: false
//
COMPOUND: Nc1nc(NC2CCN(C(=O)Cc3ccc4c(c3)OCO4)CC2)sc1C(=O)c1c(F)cccc1F
ASSAY TARGET: UniProt P24941
LABEL: false
//
COMPOUND: Nc1nc(NC2CCN(C(=O)Oc3ccc(F)cc3)CC2)sc1C(=O)c1c(F)cccc1F
ASSAY TARGET: UniProt P24941
LABEL: false
//
COMPOUND: Nc1nc(NC2CCN(C(=O)c3csc([N+](=O)[O-])c3)CC2)sc1C(=O)c1c(F)cccc1F
ASSAY TARGET: UniProt P24941
LABEL: false
//
COMPOUND: Nc1nc(NC2CCN(C(=O)c3cccnc3Sc3ccc(Cl)cc3)CC2)sc1C(=O)c1c(F)cccc1F
ASSAY TARGET: UniProt P24941
LABEL: false
